# target or system: CD3ε homodimer protein (human, UniProt P07766 23-126, limits assumed)
# Sequence (P07766 23-126 limits assumed): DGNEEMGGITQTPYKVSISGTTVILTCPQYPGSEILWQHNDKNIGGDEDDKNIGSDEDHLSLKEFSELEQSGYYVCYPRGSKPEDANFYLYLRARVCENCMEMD
# protocol details: SPR, immobilized CD3ε homodimer;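 also: biacore T200 surface plasmon resonance at 25 °C, antibody variants flowed as analytes over amine-coupled CD3ε homodimer on a CM4 chip, variant binding amount divided by that of GLS3000 antibody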
# ratio of amounts bound (vs GLS3000) annotations
measured parameter: ratio of amounts bound (vs GLS3000)

>>> reading("GLS3000 F55A (antibody, name in Kabat numbering, V domains shown, one-arm format as m2) VH: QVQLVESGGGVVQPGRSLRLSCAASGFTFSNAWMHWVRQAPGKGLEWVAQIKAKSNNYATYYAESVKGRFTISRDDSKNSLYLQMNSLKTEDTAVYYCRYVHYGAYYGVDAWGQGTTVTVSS VL: DIVMTQSPLSLPVTPGEPASISCRSSQSLVHSNRNTYLHWYQQKPGQAPRLLIYKVSNRASGVPDRFSGSGSGTDFTLKISRVEAEDVGVYYCGQGTQVPYTFGQGTKLEIK")
1.13
>>> reading("GLS3000 H34I (antibody, name in Kabat numbering, V domains shown, one-arm format as m2) VH: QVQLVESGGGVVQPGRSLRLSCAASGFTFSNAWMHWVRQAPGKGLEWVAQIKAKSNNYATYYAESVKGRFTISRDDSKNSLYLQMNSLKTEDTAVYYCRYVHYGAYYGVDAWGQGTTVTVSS VL: DIVMTQSPLSLPVTPGEPASISCRSSQSLVHSNRNTYLIWYQQKPGQAPRLLIYKVSNRFSGVPDRFSGSGSGTDFTLKISRVEAEDVGVYYCGQGTQVPYTFGQGTKLEIK")
0.65
>>> reading("GLS3000 R54A (antibody, name in Kabat numbering, V domains shown, one-arm format as m2) VH: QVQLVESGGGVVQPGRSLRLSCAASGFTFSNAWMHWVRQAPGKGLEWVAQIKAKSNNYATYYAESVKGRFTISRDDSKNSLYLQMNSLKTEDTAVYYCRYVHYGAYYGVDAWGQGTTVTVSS VL: DIVMTQSPLSLPVTPGEPASISCRSSQSLVHSNRNTYLHWYQQKPGQAPRLLIYKVSNAFSGVPDRFSGSGSGTDFTLKISRVEAEDVGVYYCGQGTQVPYTFGQGTKLEIK")
0.69
>>> reading("GLS3000 V94P (antibody, name in Kabat numbering, V domains shown, one-arm format as m2) VH: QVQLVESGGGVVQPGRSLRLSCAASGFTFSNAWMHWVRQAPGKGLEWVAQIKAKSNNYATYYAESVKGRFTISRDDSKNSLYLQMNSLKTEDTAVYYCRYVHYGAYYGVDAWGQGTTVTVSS VL: DIVMTQSPLSLPVTPGEPASISCRSSQSLVHSNRNTYLHWYQQKPGQAPRLLIYKVSNRFSGVPDRFSGSGSGTDFTLKISRVEAEDVGVYYCGQGTQPPYTFGQGTKLEIK")
1.26
>>> reading("GLS3000 N28L (antibody, name in Kabat numbering, V domains shown, one-arm format as m2) VH: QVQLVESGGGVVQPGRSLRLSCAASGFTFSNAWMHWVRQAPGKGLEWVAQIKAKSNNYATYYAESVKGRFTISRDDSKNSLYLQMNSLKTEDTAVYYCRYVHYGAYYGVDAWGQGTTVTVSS VL: DIVMTQSPLSLPVTPGEPASISCRSSQSLVHSLRNTYLHWYQQKPGQAPRLLIYKVSNRFSGVPDRFSGSGSGTDFTLKISRVEAEDVGVYYCGQGTQVPYTFGQGTKLEIK")
0.39
>>> reading("GLS3000 Q93D (antibody, name in Kabat numbering, V domains shown, one-arm format as m2) VH: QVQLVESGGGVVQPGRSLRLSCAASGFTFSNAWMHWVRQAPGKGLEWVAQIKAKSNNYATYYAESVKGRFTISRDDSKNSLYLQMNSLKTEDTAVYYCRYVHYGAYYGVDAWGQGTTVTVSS VL: DIVMTQSPLSLPVTPGEPASISCRSSQSLVHSNRNTYLHWYQQKPGQAPRLLIYKVSNRFSGVPDRFSGSGSGTDFTLKISRVEAEDVGVYYCGQGTDVPYTFGQGTKLEIK")
0.72
>>> reading("GLS3000 K50T (antibody, name in Kabat numbering, V domains shown, one-arm format as m2) VH: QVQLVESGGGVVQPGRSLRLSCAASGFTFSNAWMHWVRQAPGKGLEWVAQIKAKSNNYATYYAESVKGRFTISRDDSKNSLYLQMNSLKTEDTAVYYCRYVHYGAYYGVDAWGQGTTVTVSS VL: DIVMTQSPLSLPVTPGEPASISCRSSQSLVHSNRNTYLHWYQQKPGQAPRLLIYTVSNRFSGVPDRFSGSGSGTDFTLKISRVEAEDVGVYYCGQGTQVPYTFGQGTKLEIK")
0.19
>>> reading("GLS3000 R45E (antibody, name in Kabat numbering, V domains shown, one-arm format as m2) VH: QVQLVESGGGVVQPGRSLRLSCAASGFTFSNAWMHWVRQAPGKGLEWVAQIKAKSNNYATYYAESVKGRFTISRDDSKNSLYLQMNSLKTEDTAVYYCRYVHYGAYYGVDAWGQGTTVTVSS VL: DIVMTQSPLSLPVTPGEPASISCRSSQSLVHSNRNTYLHWYQQKPGQAPELLIYKVSNRFSGVPDRFSGSGSGTDFTLKISRVEAEDVGVYYCGQGTQVPYTFGQGTKLEIK")
0.75
>>> reading("GLS3000 N30A (antibody, name in Kabat numbering, V domains shown, one-arm format as m2) VH: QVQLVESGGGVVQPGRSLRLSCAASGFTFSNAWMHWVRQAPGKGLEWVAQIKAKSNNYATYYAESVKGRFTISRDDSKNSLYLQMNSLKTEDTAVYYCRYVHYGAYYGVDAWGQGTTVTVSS VL: DIVMTQSPLSLPVTPGEPASISCRSSQSLVHSNRATYLHWYQQKPGQAPRLLIYKVSNRFSGVPDRFSGSGSGTDFTLKISRVEAEDVGVYYCGQGTQVPYTFGQGTKLEIK")
0.5
>>> reading("GLS3000 S27aY (antibody, name in Kabat numbering, V domains shown, one-arm format as m2) VH: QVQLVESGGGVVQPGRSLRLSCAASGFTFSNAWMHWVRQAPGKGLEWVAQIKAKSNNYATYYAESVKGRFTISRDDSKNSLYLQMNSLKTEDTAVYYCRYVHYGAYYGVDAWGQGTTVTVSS VL: DIVMTQSPLSLPVTPGEPASISCRSSQYLVHSNRNTYLHWYQQKPGQAPRLLIYKVSNRFSGVPDRFSGSGSGTDFTLKISRVEAEDVGVYYCGQGTQVPYTFGQGTKLEIK")
1.1
